Molecular target: NAE (heterodimer of APPBP1 and UBA3) (Homo sapiens, UniProt Q8TBC4)
Construct: amino acids 1 to 463 of human UBA3 protein; made in house; host or cells: Sf9 insect cells (baculovirus co-infection) for NAE; E. coli BL21 (DE3) for GST-UBC12
Sequence (Q8TBC4 1-463): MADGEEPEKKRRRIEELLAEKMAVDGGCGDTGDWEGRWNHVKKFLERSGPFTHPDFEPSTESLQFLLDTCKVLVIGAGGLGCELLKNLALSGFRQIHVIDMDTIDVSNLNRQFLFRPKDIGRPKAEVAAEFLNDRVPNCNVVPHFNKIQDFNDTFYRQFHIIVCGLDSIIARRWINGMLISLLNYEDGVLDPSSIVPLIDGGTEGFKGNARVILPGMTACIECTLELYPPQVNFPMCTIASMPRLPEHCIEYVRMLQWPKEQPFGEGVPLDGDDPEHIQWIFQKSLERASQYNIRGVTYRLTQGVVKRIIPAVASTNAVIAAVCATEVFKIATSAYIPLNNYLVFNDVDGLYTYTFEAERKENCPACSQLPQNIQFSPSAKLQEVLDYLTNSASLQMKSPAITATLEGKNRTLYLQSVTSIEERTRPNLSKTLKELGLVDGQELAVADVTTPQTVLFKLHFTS
Sequence (Q13564 1-534 partner): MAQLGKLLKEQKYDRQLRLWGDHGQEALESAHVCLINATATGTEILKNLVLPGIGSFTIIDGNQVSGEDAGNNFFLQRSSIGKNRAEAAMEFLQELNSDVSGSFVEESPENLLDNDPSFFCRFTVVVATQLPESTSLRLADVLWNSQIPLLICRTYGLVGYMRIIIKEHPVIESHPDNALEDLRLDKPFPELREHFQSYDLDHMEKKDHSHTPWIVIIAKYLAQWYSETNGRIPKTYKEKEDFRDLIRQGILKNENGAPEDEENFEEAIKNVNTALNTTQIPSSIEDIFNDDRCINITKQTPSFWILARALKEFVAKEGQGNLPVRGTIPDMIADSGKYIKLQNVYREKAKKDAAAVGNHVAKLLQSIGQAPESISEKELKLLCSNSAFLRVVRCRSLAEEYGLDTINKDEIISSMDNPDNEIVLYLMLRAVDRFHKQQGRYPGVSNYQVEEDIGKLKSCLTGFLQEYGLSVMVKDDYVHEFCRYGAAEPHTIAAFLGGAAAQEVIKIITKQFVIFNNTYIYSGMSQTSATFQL
Experiment: Nedd8 conjugation inhibitory activity (AlphaScreen)
Format: biochemical
Conditions: purified NAE, GST-UBC12, ATP, Biotin-Nedd8, reaction 90 minutes
Measured IC50 accompanies every entry in the list below.

# COMPOUND, IC50
records = [
    ("Nc1ncnc2c1c(C#Cc1c(F)cc(N3CCC(C(=O)O)C3)cc1F)cn2[C@@H]1O[C@H](CNS(N)(=O)=O)[C@@H](O)[C@H]1O (stereo partly drawn) [Reference Example 41]", "≤ 0.003 µM"),
    ("COc1ccc(C#Cc2cn([C@@H]3C[C@H](CNS(N)(=O)=O)[C@@H](O)[C@H]3O)c3ncnc(N)c23)c(S(C)(=O)=O)c1 [Reference Example 113]", "≤ 0.003 µM"),
    ("Nc1ncnc2c1c(C#Cc1c(F)cc(N3CCC[C@@H](O)C3)cc1F)cn2[C@@H]1O[C@H](CNS(N)(=O)=O)[C@@H](O)[C@H]1O [Reference Example 40]", "≤ 0.003 µM"),
]
